Each entry below carries its reported inhibition.
Experimental Target: Serine/threonine-protein kinase Nek2 (Homo sapiens) (UniProt P51955);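 note: mean inhibition value from the GSK PKIS kinase screening panel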
Sequence (P51955 whole entry): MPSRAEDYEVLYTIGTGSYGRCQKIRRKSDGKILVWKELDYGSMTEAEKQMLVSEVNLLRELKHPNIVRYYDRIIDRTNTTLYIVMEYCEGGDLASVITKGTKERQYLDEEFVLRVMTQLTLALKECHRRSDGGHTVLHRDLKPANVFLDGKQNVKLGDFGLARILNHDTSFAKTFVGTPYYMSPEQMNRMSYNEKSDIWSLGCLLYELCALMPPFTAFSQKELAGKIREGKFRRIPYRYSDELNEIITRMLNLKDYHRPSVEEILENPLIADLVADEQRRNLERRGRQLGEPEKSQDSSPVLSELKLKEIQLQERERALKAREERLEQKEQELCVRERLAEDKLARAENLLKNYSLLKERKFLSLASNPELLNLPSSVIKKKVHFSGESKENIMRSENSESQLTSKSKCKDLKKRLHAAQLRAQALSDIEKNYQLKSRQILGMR
Condition Set: at 0.1 µM

Mol	inhibition [%]
CCc1nn2ncccc2c1-c1ccnc(NC2CC2)n1	3.32
Fc1ccc(-c2nn3ncccc3c2-c2ccnc(Nc3ccc4c(c3)OCCO4)n2)cc1	5.03
COC(=O)c1sc(-n2cnc3cc(OC)c(OC)cc32)cc1OCc1ccccc1C(F)(F)F	4.46
COC(=O)Nc1nc2ccc(S(=O)(=O)c3ccc(NC(=O)Nc4cc(C(F)(F)F)ccc4F)cc3)cc2[nH]1	3.76
CCCN1CCC(c2ccc(Nc3nc(Nc4cc(F)ccc4C(N)=O)c4cc[nH]c4n3)c(OC)c2)CC1	4.85
COc1cc(/C=N/Nc2ncnc3[nH]ncc23)ccc1O	3.52
CCN(CC)S(=O)(=O)c1ccc(OC)c(Nc2ncc(-c3ccccc3)o2)c1	0.46
Fc1cccc(COc2ccc(Nc3ncnc4sc(-c5ccco5)cc34)cc2Cl)c1	3.69
COc1cc2c(cc1Nc1nc(Nc3ccsc3C(N)=O)c3cc[nH]c3n1)N(C(=O)CN(C)C)CCC2(C)C	6.02
Clc1ccc(-c2nn3ncccc3c2-c2ccnc(Nc3ccccc3)n2)cc1	2.53
N#Cc1c(NC(=O)CN2CCOCC2)sc2c1CCCC2	4.61
CS(=O)(=O)CCNCc1ccc(-c2ccc3ncnc(Nc4ccc(OCc5ccccc5)c(C(F)(F)F)c4)c3c2)o1	4.27
NS(=O)(=O)c1ccc(Nc2ncc(-c3ccccc3)o2)cc1	4.32
Nc1ncc(-c2cccc(S(N)(=O)=O)c2)c2scc(-c3ccc(F)c(Cl)c3)c12	4.7
CNC(=O)c1cncc(/C=C/c2ccccc2Cl)c1	-0.6
c1ccc(-c2nc3n(c2-c2ccc4c(c2)OCO4)CCC3)nc1	2.03
O=C(O[C@H]1CN[C@H](C#Cc2cc3ncnc(Nc4ccc(Cc5ccccc5)cc4)c3s2)C1)N1CCOCC1	2.89
O=S(=O)(CCNCc1ccc(-c2ccc3ncnc(Nc4ccc(OCc5cccc(F)c5)c(Cl)c4)c3c2)o1)c1ccccc1	5.1

====

Experimental Target: Tyrosine-protein kinase JAK2 (Homo sapiens) (UniProt O60674);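 note: mean percent inhibition of JAK2 activity, from the GSK PKIS kinase panel screen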
Sequence (O60674 whole entry): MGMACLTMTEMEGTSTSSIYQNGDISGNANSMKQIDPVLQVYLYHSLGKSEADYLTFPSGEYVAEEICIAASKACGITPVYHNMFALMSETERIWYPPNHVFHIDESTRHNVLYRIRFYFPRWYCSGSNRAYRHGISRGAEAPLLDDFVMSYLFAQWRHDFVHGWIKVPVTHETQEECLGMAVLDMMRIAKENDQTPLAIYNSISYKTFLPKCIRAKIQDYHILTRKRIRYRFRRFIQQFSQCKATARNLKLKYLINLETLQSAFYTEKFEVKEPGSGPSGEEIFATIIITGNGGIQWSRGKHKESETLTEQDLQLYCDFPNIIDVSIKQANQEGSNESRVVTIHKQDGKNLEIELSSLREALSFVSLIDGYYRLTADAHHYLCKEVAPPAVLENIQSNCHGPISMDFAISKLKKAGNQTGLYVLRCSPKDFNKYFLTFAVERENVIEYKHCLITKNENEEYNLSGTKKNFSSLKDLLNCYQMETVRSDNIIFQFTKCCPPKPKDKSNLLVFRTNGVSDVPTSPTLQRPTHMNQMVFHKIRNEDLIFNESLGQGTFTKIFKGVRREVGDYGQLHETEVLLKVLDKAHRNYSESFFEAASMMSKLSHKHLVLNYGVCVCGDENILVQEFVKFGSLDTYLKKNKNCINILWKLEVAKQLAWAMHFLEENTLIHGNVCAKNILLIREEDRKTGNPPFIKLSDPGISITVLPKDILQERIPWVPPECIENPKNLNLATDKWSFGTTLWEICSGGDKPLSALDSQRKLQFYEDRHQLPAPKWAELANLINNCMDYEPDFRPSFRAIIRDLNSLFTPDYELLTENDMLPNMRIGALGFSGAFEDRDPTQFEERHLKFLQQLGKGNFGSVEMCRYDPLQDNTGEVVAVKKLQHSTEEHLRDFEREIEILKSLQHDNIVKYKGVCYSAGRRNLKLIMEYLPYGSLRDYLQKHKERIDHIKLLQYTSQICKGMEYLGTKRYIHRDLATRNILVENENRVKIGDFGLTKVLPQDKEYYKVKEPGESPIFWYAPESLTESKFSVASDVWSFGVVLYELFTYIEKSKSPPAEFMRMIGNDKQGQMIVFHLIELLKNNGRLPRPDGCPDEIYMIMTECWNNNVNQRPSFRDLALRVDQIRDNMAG
Condition Set: at 0.1 µM

Mol	inhibition / %
CC(C)COC(=O)c1ccc2c(c1)/C(=C/Nc1ccc(S(N)(=O)=O)cc1)C(=O)N2	-0.31
N#Cc1c(NC(=O)CN2CCOCC2)sc2c1CCCC2	2.3
Cc1ccc2c(-c3ccnc(Nc4ccccc4)n3)c(-c3ccc(F)cc3)nn2n1	1.55
Cc1cccc(Nc2ncc(-c3ccccc3)o2)c1	2
CCc1nn2ncccc2c1-c1ccnc(NC2CC2)n1	0.9
CNC(=O)c1cc(-c2ccc(F)cc2)cc(-c2ccc(S(=O)(=O)N3CCCC3)cc2)c1N	1.75
CCn1c(-c2nonc2N)nc2cnc(Oc3cccc(NC(=O)c4ccc(N(C)C)cc4)c3)cc21	0.7
CCCN1CCC(c2ccc(Nc3nc(Nc4cc(F)ccc4C(N)=O)c4cc[nH]c4n3)c(OC)c2)CC1	0.71
CC(C)(CO)CNC(=O)c1ccc2c(c1)/C(=N/Nc1ccc(S(N)(=O)=O)cc1)C(=O)N2	-1.03
COc1cccc(-n2ncc3c(N/N=C/c4ccc(F)cc4)ncnc32)c1	1.38

====

System: Mast/stem cell growth factor receptor Kit (Homo sapiens), P10721 [T670I]
Sequence (P10721 whole entry T670I): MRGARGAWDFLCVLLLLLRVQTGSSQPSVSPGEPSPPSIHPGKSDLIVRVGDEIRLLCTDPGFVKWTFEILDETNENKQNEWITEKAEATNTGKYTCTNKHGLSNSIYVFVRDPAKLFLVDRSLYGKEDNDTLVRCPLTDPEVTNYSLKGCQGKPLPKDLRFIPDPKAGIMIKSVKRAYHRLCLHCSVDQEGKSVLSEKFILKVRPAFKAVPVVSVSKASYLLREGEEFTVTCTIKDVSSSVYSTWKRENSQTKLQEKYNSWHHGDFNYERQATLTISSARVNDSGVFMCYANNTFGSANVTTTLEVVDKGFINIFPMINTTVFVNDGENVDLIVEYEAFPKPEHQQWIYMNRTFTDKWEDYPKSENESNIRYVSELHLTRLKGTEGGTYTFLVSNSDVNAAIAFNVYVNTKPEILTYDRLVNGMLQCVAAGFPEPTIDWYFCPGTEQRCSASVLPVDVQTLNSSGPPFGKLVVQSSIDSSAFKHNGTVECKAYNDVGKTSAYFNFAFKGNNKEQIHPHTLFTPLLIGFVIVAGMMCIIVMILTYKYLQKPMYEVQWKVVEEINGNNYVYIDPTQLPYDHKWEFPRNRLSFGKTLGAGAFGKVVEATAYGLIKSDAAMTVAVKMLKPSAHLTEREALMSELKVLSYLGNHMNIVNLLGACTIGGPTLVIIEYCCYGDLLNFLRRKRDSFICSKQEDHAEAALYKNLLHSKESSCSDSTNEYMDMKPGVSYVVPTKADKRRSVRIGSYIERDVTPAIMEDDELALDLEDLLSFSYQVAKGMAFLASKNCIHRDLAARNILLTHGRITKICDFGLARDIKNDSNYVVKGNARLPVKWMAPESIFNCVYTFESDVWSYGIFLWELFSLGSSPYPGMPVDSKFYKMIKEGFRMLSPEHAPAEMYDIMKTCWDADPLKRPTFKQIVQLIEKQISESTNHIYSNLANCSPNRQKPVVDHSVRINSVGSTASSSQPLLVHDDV
Condition Set: at 1 µM
The reader will find reported inhibition values listed item by item below.

Mol	inhibition, %
CCn1c(-c2nonc2N)nc2c(C#CC(C)(C)O)ncc(OC3CCNCC3)c21	-0.54
COc1cc(N2CCN(C(C)C)CC2)ccc1Nc1nc(Nc2ccc(F)cc2C(N)=O)c2cc[nH]c2n1	-1.31
Clc1ccc(-c2nn3ncccc3c2-c2ccnc(Nc3ccccc3)n2)cc1	9.51
COc1ccc(-c2oc3ncnc(N)c3c2-c2ccc(NC(=O)Nc3cc(C(F)(F)F)ccc3F)cc2)cc1	88.3
COC(=O)c1sc(-n2cnc3cc(OC)c(OC)cc32)cc1OCc1ccccc1C(F)(F)F	7.23

====

inhibition reference
Experimental Target: Tyrosine-protein kinase Fer (Homo sapiens);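 note: reported figures are averaged percent inhibition of FER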
Condition Set: at 0.1 µM
Observed Property: inhibition (%)

Mol	Quantitative Result
CNC(=O)c1cc(-c2ccc(F)cc2)cc(-c2ccc(S(=O)(=O)N3CCCC3)cc2)c1N	2.99
CCn1c(-c2nonc2N)nc2c(C#CC(C)(C)O)nc(OC[C@H](N)c3ccccc3)cc21	2.98
COc1cc2c(cc1Nc1nc(Nc3ccsc3C(N)=O)c3cc[nH]c3n1)N(C(=O)CN(C)C)CCC2(C)C	95.5
Cc1cccc(Nc2ncc(-c3ccccc3)o2)c1	3.24
COc1cc(N2CCN(C(C)C)CC2)ccc1Nc1nc(Nc2ccc(F)cc2C(N)=O)c2cc[nH]c2n1	62.8

====

// reported inhibition per item
Experimental Target: Rhodopsin kinase GRK7 (Homo sapiens);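 note: mean percent inhibition of GRK7, profiled as part of the GSK PKIS screen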
Condition Set: at 1 µM
Observed Property: inhibition (%)

Mol	Experimental Target	Units	Quantitative Result
COc1cccc(-c2c[nH]c3c(N/N=C/c4ccncc4)ncnc23)c1	Rhodopsin kinase GRK7 (Homo sapiens)	%	-6.92
CN1CCC(n2cnc(-c3ccc(F)cc3)c2-c2ccnc(Nc3ccccc3)n2)CC1	Rhodopsin kinase GRK7 (Homo sapiens)	%	6.42
Nc1nc(-c2ccc(F)cc2)c(-c2ccc3ncccc3n2)s1	Rhodopsin kinase GRK7 (Homo sapiens)	%	7.94
COc1ccc2c(-c3ccnc(Nc4cccc(OC(F)(F)F)c4)n3)cnn2n1	Rhodopsin kinase GRK7 (Homo sapiens)	%	4.9
CC(C)(CO)CNC(=O)c1ccc2c(c1)/C(=N/Nc1ccc(S(N)(=O)=O)cc1)C(=O)N2	Rhodopsin kinase GRK7 (Homo sapiens)	%	-0.41
CCN1CCC(CC(=O)Nc2n[nH]c3nnc(-c4cccc(F)c4F)cc23)CC1	Rhodopsin kinase GRK7 (Homo sapiens)	%	3.7
COc1ccc(-c2cc3c(N)ncnc3o2)cc1	Rhodopsin kinase GRK7 (Homo sapiens)	%	-1.5
O=C(O[C@H]1CN[C@H](C#Cc2cc3ncnc(Nc4ccc(Cc5ccccc5)cc4)c3s2)C1)N1CCOCC1	Rhodopsin kinase GRK7 (Homo sapiens)	%	0.52
c1ccc(COc2ccc(Nc3ncnc4ccc(-c5ccco5)cc34)cc2)cc1	Rhodopsin kinase GRK7 (Homo sapiens)	%	5.11
FC(F)(F)c1cccc(-c2nn3ncccc3c2-c2ccnc(Nc3ccc4c(c3)OCCO4)n2)c1	Rhodopsin kinase GRK7 (Homo sapiens)	%	1.11

====

Experimental Target: Sphingosine kinase 2 (Homo sapiens)
Condition Set: at 1 µM
Description: GSK_PKIS: SPHK2 mean inhibition at 1 uM [Nanosyn]
inhibition overview

Compound	Units	inhibition
CS(=O)(=O)CCNCc1coc(-c2ccc3ncnc(Nc4ccc(OCc5ccccc5)cc4)c3c2)c1	%	-0.98
COc1cc(N2CCN(C(C)C)CC2)ccc1Nc1nc(Nc2ccc(F)cc2C(N)=O)c2cc[nH]c2n1	%	-1.03
COc1ccc(-c2cc(-c3c[nH]nc3-c3ccccn3)ccn2)cc1	%	-1.01
CNC(=O)c1cc(-c2ccc(F)cc2)cc(-c2ccc(S(=O)(=O)N3CCCC3)cc2)c1N	%	-0.63
COc1ccc2c(-c3ccnc(Nc4cccc(OC(F)(F)F)c4)n3)cnn2n1	%	-2.35
N#Cc1c(NC(=O)c2ccc(F)cc2)sc2c1CCCC2	%	0
CN(C)CCOc1ccc(-c2nc(-c3ccncc3)c(-c3ccc4c(c3)CC/C4=N\O)[nH]2)cc1	%	-0.4
Cc1cccc(Nc2ncc(-c3ccccc3)o2)c1	%	-1.72
COc1ccc(-c2nn3ncccc3c2-c2ccnc(Nc3ccc4c(c3)OCCO4)n2)cc1	%	0.39
CNC(=O)c1cncc(/C=C/c2ccccc2Cl)c1	%	-0.01
COc1cc(/C=N/Nc2ncnc3[nH]ncc23)ccc1O	%	0.42
CC(C)(CO)CNC(=O)c1ccc2c(c1)/C(=N/Nc1ccc(S(N)(=O)=O)cc1)C(=O)N2	%	0.16
CCN1CCC(CC(=O)Nc2n[nH]c3nnc(-c4cccc(F)c4F)cc23)CC1	%	0
CCOc1ccc2c(-c3ccnc(Nc4cccc(C(F)(F)F)c4)n3)cnn2n1	%	-1.13
COc1cccc(-c2c[nH]c3c(N/N=C/c4ccncc4)ncnc23)c1	%	-1
CN1CCC(n2cnc(-c3ccc(F)cc3)c2-c2ccnc(N)n2)CC1	%	-1.67
CCN(CC)S(=O)(=O)c1ccc(OC)c(Nc2ncc(-c3ccccc3)o2)c1	%	0.49
O=S(=O)(CCNCc1ccc(-c2ccc3ncnc(Nc4ccc(OCc5cccc(F)c5)c(Cl)c4)c3c2)o1)c1ccccc1	%	0.69
CCn1cc(-c2ccnc3[nH]ccc23)c(-c2cccc(NC(=O)Nc3ccc(OCc4ccccc4)cc3)c2)n1	%	-0.59
Nc1ncc(-c2cccc(S(N)(=O)=O)c2)c2scc(-c3ccc(F)c(Cl)c3)c12	%	0.43
[O-][S+]1CCN(Cc2ccc(-c3ccc4ncnc(Nc5ccc(OCc6cccc(F)c6)c(Cl)c5)c4c3)o2)CC1	%	0.73
Nc1nc(-c2cccc(Cl)c2)c(-c2ccc3ncccc3n2)s1	%	0.1
Cc1ccc(O)cc1Nc1ccnc2cc(-c3ccccn3)ccc12	%	-0.19
CCCN1CCC(c2ccc(Nc3nc(Nc4cc(F)ccc4C(N)=O)c4cc[nH]c4n3)c(OC)c2)CC1	%	0
COC(=O)c1sc(-n2cnc3cc(OC)c(OC)cc32)cc1OCc1ccccc1C(F)(F)F	%	-2.19
COc1ccc(-c2cc3c(N)ncnc3o2)cc1	%	-0.08
O=C(O[C@H]1CN[C@H](C#Cc2cc3ncnc(Nc4ccc(Cc5ccccc5)cc4)c3s2)C1)N1CCOCC1	%	-1.6
c1ccc(COc2ccc(Nc3ncnc4ccc(-c5ccco5)cc34)cc2)cc1	%	1.35
c1cc(-c2cnn3nc(N4CCOCC4)ccc23)nc(NC2CC2)n1	%	1.66
CN1CCC(n2cnc(-c3ccc(F)cc3)c2-c2ccnc(Nc3ccccc3)n2)CC1	%	0.78
COc1cccc(-n2ncc3c(N/N=C/c4ccc(F)cc4)ncnc32)c1	%	0.38
FC(F)(F)c1cccc(-c2nn3ncccc3c2-c2ccnc(Nc3ccc4c(c3)OCCO4)n2)c1	%	-0.65
CNC(=O)c1cccc(C#Cc2cncnc2Nc2ccc(OCc3cccc(F)c3)c(Cl)c2)c1	%	-7.19
Clc1ccc(-c2nn3ncccc3c2-c2ccnc(Nc3ccccc3)n2)cc1	%	0.98
CCn1c(-c2nonc2N)nc2ccccc21	%	-0.24
Fc1cccc(COc2ccc(Nc3ncnc4sc(-c5ccco5)cc34)cc2Cl)c1	%	-0.56
CC(=O)Nc1cccc(C#Cc2cncnc2Nc2ccc(OCc3cccc(F)c3)c(Cl)c2)c1	%	-2.47
CC1=C(C(=O)Nc2cc(Cl)c3[nH]ncc3c2)C(c2ccc(C(F)(F)F)cc2)CC(=O)N1 (configuration not stated)	%	0.72
N#Cc1c(NC(=O)CN2CCOCC2)sc2c1CCCC2	%	-0.6
O=C(Nc1n[nH]c2cc(-c3ccc(F)cc3)ccc12)C1CC1	%	-0.37
NS(=O)(=O)c1ccc(N/N=C2\C(=O)Nc3ccc4ncccc4c32)cc1	%	7.47
CCNC(=O)O[C@H]1CN[C@H](C#Cc2cc3ncnc(Nc4ccc(OCc5cccc(F)c5)c(Cl)c4)c3s2)C1	%	-3.06
